- METHOD DESCRIPTION: Cytotoxicity against HEK293 cells assessed as cell survival rate at 500 uM relative to control
- Format: toxicity, cell-based
- RUN PARAMETERS: human, read-out: Survival
ATTRIBUTE MEASURED: viability at 500 µM (%)
Could you give me the number in %? Just the number is fine.

Input: Any idea what viability at 500 µM was measured for NCCCCCCCCCCNCCCC(N)CC(=O)O (racemic) ?
Output: 0

----------
Measured pIC50 values are reported for all entries that follow.
- METHOD DESCRIPTION: Cytotoxicity against HEK293 cells assessed as inhibition of cell growth
- Format: toxicity, cell-based
- RUN PARAMETERS: human
Worth noting: pIC50 values are minus log10 of concentrations stated in mol/L.

# MOLECULE, pIC50
measured = [
    ("NCCCCCCCCCCNCCCC(N)CC(=O)O (racemic)", 3.60),
]

As a next step, examine the molecule that follows.
Input: Any idea what pIC50 was measured for CCCCCCNCCCC(N)CC(=O)O (racemic) ?
Output: 3.96
